For each record, write down the corresponding IC50.
test.system: Human recombinant DHX9 protein (Homo sapiens (Human))
Sequence (Q08211 whole entry): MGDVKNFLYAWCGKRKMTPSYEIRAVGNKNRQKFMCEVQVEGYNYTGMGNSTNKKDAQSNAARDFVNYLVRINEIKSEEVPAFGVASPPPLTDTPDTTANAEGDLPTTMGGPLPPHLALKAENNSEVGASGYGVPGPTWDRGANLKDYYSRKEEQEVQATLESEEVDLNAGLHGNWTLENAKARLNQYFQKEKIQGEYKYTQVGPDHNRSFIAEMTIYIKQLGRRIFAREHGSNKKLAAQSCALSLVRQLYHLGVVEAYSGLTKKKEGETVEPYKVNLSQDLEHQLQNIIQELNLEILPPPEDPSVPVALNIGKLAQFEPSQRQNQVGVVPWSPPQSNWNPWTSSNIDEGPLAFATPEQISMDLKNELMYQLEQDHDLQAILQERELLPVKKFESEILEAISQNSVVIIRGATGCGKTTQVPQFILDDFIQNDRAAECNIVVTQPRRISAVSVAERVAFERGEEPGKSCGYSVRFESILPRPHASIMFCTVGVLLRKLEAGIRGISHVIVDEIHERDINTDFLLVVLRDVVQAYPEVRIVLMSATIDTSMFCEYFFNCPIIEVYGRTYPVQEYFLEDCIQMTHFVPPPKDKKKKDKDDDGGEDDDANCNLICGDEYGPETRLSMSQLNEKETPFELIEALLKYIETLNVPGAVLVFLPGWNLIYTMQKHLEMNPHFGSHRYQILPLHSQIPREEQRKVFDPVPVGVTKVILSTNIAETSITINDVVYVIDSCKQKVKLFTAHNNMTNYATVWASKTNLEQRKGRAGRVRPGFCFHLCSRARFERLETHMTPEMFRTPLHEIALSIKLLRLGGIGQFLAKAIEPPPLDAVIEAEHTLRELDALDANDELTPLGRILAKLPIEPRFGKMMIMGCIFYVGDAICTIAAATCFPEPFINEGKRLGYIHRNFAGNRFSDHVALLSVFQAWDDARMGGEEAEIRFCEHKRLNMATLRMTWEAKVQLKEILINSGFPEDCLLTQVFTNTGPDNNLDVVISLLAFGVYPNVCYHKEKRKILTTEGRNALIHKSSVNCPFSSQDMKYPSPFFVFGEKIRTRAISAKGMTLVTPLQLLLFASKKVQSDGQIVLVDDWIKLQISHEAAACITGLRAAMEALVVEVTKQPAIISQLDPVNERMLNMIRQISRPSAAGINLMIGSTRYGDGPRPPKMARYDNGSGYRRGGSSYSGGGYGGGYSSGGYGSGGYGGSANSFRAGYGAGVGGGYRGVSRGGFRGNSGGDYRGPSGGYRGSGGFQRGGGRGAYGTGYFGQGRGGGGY
experiment: DHX9 ATPase assay (ADP-Glo)
experimental.context: read-out: DHX9 Biochemical Inflection Point
State the result as a value with its unit after it.

Please review the following examples before continuing.
                               entry_smiles   result
0  Cc1sc(C(=O)Nc2cc(Cl)cc(NS(C)(=O)=O)c2)cc1-c1c(F)cccc1OCc1ccccc1   353 nM
1  COc1ccc(F)c(-c2cc(C(=O)Nc3cc(Cl)cc(NS(C)(=O)=O)c3)cn2C)n1  44.4 nM
2  CN1CCN(c2cnc(-n3cc(C(=O)Nc4cc(Cl)cc(NS(C)(=O)=O)c4)cn3)c(OCc3cccnc3)c2)CC1=O  11.1 nM

Query compound follows.
Fill in: IC50 of CC(=O)N1CCC(c2cnc(-c3cc(C(=O)Nc4cc(Cl)cc(NS(C)(=O)=O)c4)sc3C)nc2)CC1 is ___ 2.2 nM
